biological target: AURKA (Homo sapiens, UniProt O14965); construct: endogenous in cells; host or cells: Jurkat cells; format: cell-based; conditions: 100 nM compound, Jurkat cells, 24 h, Table 2
OUTCOME MEASURE: Percentage of AURKA Degradation Induced by 100 nM Compound in Jurkat Cells

Recorded Percentage of AURKA Degradation Induced by 100 nM Compound in Jurkat Cells, per entry:
| COMPOUND | READING |
| --- | --- |
| O=C1CCN(c2ccc(N3CCN(C(=O)N4CCN(c5ccc(Nc6ncc7c(n6)-c6ccc(Cl)cc6C(c6c(F)cccc6F)=NC7)cc5)CC4)CC3)nc2)C(=O)N1 [Compound A258] | +++ (Degradation > 70%) |
| O=C1CCN(c2ccc(N3CCN(CCCOc4cccc(Nc5ncc6c(n5)-c5ccc(Cl)cc5C(c5c(F)cccc5F)=NC6)c4)CC3)cc2)C(=O)N1 [Compound A102] | + (Degradation ≤ 30%) |
| CN(CCN1CCN(c2ncc(N3CCC(=O)NC3=O)s2)CC1)C(=O)c1ccc(Nc2ncc3c(n2)-c2ccc(C4CC4)cc2C(c2c(F)cccc2F)=NC3)cc1 [Compound A135] | +++ (Degradation > 70%) |
| O=C1CCN(c2ccc(N3CCN(CC4CN([C@H]5CC[C@@H](Nc6ncc7c(n6)-c6ccc(Cl)cc6C(c6c(F)cccc6F)=NC7)CC5)C4)CC3)nc2)C(=O)N1 [Compound A247] | + (Degradation ≤ 30%) |

List the reported Percentage of AURKA Degradation Induced by 100 nM Compound in Jurkat Cells of each compound below.
1. O=C1CCN(c2ccc(N3CC(CN4CCN(C(=O)C56CC(Nc7ncc8c(n7)-c7ccc(Cl)cc7C(c7c(F)cccc7F)=NC8)(C5)C6)CC4)C3)nc2)C(=O)N1 [Compound A279]
2. COc1ccccc1C1=NCc2cnc(Nc3ccc(C(=O)NC4CC5(CCN(c6ccc(N7CCC(=O)NC7=O)cn6)CC5)C4)cc3)nc2-c2ccncc21 [Compound A137]

Output line:
1. +++ (Degradation > 70%)
2. +++ (Degradation > 70%)

List the reported Percentage of AURKA Degradation Induced by 100 nM Compound in Jurkat Cells of each compound below.
1. O=C1CCN(c2cncc(N3CCN(CC4CN(c5cccc(Nc6ncc7c(n6)-c6ccc(Cl)cc6C(c6c(F)cccc6F)=NC7)c5)C4)CC3)c2)C(=O)N1 [Compound A197]
2. N#CC1CN(C2CCN(c3ccc(N4CCC(=O)NC4=O)cn3)CC2)CCN1c1ccc(Nc2ncc3c(n2)-c2ccc(Cl)cc2C(c2c(F)cccc2F)=NC3)cc1 (stereo not shown) [Compound A251]
3. O=C1CCN(C23CC(N4CCN(CCNC(=O)c5ccc(Nc6ncc7c(n6)-c6ccc(Cl)cc6C(c6c(F)cccc6F)=NC7)cc5)CC4)(C2)C3)C(=O)N1 [Compound A92]
4. O=C1CCN(c2ccc(N3CCN(CC4CN(c5ccc(Nc6ncc7c(n6)-c6ccc(Cl)cc6C(c6c(F)cccc6F)=NC7)cc5)C4)CC3)nc2)C(=O)N1 [Compound A199]
5. O=C1CCN(c2ccc(N3CCC(N4CCN(c5ccc(Nc6ncc7c(n6)-c6ccc(Cl)cc6C(c6c(F)cccc6F)=NC7)cc5)CC4=O)CC3)nc2)C(=O)N1 [Compound A295]

Output line:
["+++ (Degradation > 70%)", "+++ (Degradation > 70%)", "+ (Degradation ≤ 30%)", "+++ (Degradation > 70%)", "+++ (Degradation > 70%)"]

List the reported Percentage of AURKA Degradation Induced by 100 nM Compound in Jurkat Cells of each compound below.
1. O=C1CCN(c2ccc(N3CCN(CC4CN([C@H]5CC[C@H](Nc6ncc7c(n6)-c6ccc(Cl)cc6C(c6c(F)cccc6F)=NC7)CC5)C4)CC3)nc2)C(=O)N1 [Compound A246]
2. O=C1CCN(c2ccc(N3CCN(CC4CN(c5ccc(Nc6ncc7c(n6)-c6ccc(Cl)cc6C(c6c(F)cccc6F)=NC7)cn5)C4)CC3)nc2)C(=O)N1 [Compound A248]
3. O=C1CCN(c2ccc(N3CCN(CCC#Cc4cccc(Nc5ncc6c(n5)-c5ccc(Cl)cc5C(c5c(F)cccc5F)=NC6)c4)CC3)cc2)C(=O)N1 [Compound A97]
4. O=C1CCN(c2cccc(N3CCC(CN4CCOc5ccc(Nc6ncc7c(n6)-c6ccc(Cl)cc6C(c6c(F)cccc6F)=NC7)cc5C4)CC3)c2)C(=O)N1 [Compound A240]

Output line:
1: + (Degradation ≤ 30%); 2: +++ (Degradation > 70%); 3: + (Degradation ≤ 30%); 4: +++ (Degradation > 70%)

List the reported Percentage of AURKA Degradation Induced by 100 nM Compound in Jurkat Cells of each compound below.
1. CN1C(=O)CCN(c2ccc(N3CCC4(CC3)CC(NC(=O)c3ccc(Nc5ncc6c(n5)-c5ccc(Cl)cc5C(c5c(F)cccc5F)=NC6)cc3)C4)nc2)C1=O [Compound A82]
2. CP(C)(=O)c1ccc2c(c1)C(c1c(F)cccc1F)=NCc1cnc(Nc3ccc(N4CCN(C5CCN(c6ccc(N7CCC(=O)NC7=O)cn6)CC5)CC4=O)cc3)nc1-2 [Compound A268]

Output line:
+ (Degradation ≤ 30%)
+++ (Degradation > 70%)

* * *

biological target: AURKA (Homo sapiens, UniProt O14965); construct: endogenous in cells; host or cells: Jurkat cells; format: cell-based; details: 1 µM compound, Jurkat cells, 24 h, Table 2
OUTCOME MEASURE: Percentage of AURKA Degradation Induced by 1 µM Compound in Jurkat Cells

| MOLECULE | READING |
| --- | --- |
| O=C1CCN(c2ccc(N3CCC(CN4CCN(C56CC(Nc7ncc8c(n7)-c7ccc(Cl)cc7C(c7c(F)cccc7F)=NC8)(C5)C6)CC4)C3)nc2)C(=O)N1 (centres unmarked) | +++ (Degradation > 70%) |
| O=C1CCN(c2cccc(N3CCC(N4CC(c5cccc(Nc6ncc7c(n6)-c6ccc(Cl)cc6C(c6c(F)cccc6F)=NC7)c5)C4)CC3)c2)C(=O)N1 | + (Degradation ≤ 30%) |
| NC(=O)c1cc(N2CCN(C(=O)C3CCN(c4ccc(Nc5ncc6c(n5)-c5ccc(Cl)cc5C(c5c(F)cccc5F)=NC6)cc4)CC3)CC2)ncc1N1CCC(=O)NC1=O | + (Degradation ≤ 30%) |
| O=C1CCN(C23CC(N4CCN(CCNC(=O)c5ccc(Nc6ncc7c(n6)-c6ccc(Cl)cc6C(c6c(F)cccc6F)=NC7)cc5)CC4)(C2)C3)C(=O)N1 | + (Degradation ≤ 30%) |
| Cc1nc(N2CCC3(CC2)CC(NC(=O)c2ccc(Nc4ncc5c(n4)-c4ccc(Cl)cc4C(c4c(F)cccc4F)=NC5)cc2)C3)ccc1N1CCC(=O)NC1=O | +++ (Degradation > 70%) |
| O=C1CCN(c2ccc(N3CCC(N4CCN(c5ccc(Nc6ncc7c(n6)-c6ccc(Cl)cc6C(c6c(F)cccc6F)=NC7)cc5)C5(CC5)C4)CC3)nc2)C(=O)N1 | + (Degradation ≤ 30%) |
| O=C1CCN(c2ccc(N3CCC(C(=O)N4CCN(C56CC(Nc7ncc8c(n7)-c7ccc(Cl)cc7C(c7c(F)cccc7F)=NC8)(C5)C6)C(=O)C4)CC3)nc2)C(=O)N1 | +++ (Degradation > 70%) |
| O=C1CCN(c2ccc(N3CC(N4CCN(C(=O)C56CC(Nc7ncc8c(n7)-c7ccc(Cl)cc7C(c7c(F)cccc7F)=NC8)(C5)C6)CC4)C3)nc2)C(=O)N1 | +++ (Degradation > 70%) |

Turning to the following molecule.
Input line: Please provide the recorded Percentage of AURKA Degradation Induced by 1 µM Compound in Jurkat Cells for O=C1CCN(c2cncc(N3CC(CN4CCOc5ccc(Nc6ncc7c(n6)-c6ccc(Cl)cc6C(c6c(F)cccc6F)=NC7)cc5C4)C3)c2)C(=O)N1 , tested on AURKA (Homo sapiens, UniProt O14965).
Output line: + (Degradation ≤ 30%)

* * *

Target: AURKA (Homo sapiens)
Construct: endogenous in cells; host or cells: Jurkat cells
Sequence (O14965 1-403): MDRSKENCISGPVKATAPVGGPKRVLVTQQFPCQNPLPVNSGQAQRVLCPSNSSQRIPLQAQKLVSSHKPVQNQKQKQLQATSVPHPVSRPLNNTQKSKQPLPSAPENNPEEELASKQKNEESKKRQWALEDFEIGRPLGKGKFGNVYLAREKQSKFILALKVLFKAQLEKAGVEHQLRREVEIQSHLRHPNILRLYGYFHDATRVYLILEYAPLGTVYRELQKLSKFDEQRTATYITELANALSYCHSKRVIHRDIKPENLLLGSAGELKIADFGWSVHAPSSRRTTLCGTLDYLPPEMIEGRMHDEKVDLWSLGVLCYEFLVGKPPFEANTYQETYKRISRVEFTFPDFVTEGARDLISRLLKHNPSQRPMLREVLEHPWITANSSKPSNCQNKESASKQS
Format: cell-based
Details: 1 µM compound, Jurkat cells, 24 h, Table 2
OUTCOME MEASURE: Percentage of AURKA Degradation Induced by 1 µM Compound in Jurkat Cells

| SMILES STRUCTURE | READING |
| --- | --- |
| O=C1CCN(c2ccc(N3CCN(CC4CN([C@H]5CC[C@@H](Nc6ncc7c(n6)-c6ccc(Cl)cc6C(c6c(F)cccc6F)=NC7)CC5)C4)CC3)nc2)C(=O)N1 | + (Degradation ≤ 30%) |
| O=C1CCN(c2cccc(N3CCN(Cc4cccc(Nc5ncc6c(n5)-c5ccc(Cl)cc5C(c5c(F)cccc5F)=NC6)c4)CC3)c2)C(=O)N1 | + (Degradation ≤ 30%) |
| O=C1CCN(c2ccc(N3CC4COCC(C3)N4C3CC4(CCN(c5ccc(Nc6ncc7c(n6)-c6ccc(Cl)cc6C(c6c(F)cccc6F)=NC7)cc5)CC4)C3)nc2)C(=O)N1 | +++ (Degradation > 70%) |
| COc1cc(Nc2ncc3c(n2)-c2ccc(Cl)cc2C(c2c(F)cccc2OC)=NC3)ccc1N1CC(CN2CCN(c3ccc(N4CCC(=O)NC4=O)cn3)CC2)C1 | +++ (Degradation > 70%) |
